experiment: in vitro; assay type: in vitro ADME, rat; conditions: rat, microsomes, pH 7.4; by 60 min; read-out: added substrate metabolized by microsomes
MEASUREMENT_TYPE: metabolised at 1 h, 1 µM

Quick note, metabolised at 1 h, 1 µM for CC(CCCn1c(=O)sc2cc(F)ccc21)N1CCN(C2CCCCC2)CC1 (stereo not shown) landed at ~25%

* * *

target: dopamine transporters; assay: Non-σ competition binding assay, [3H]WIN35,428; conditions: rat brain homogenates; read-out: DAT Ki
MEASUREMENT_TYPE: Ki (nM)
Unit nM implied. Number only.

The measured Ki associated with S=c1sc2ccccc2n1CCCCN1CCN(C2CCCCC2)CC1 [CM156] reads 1180
